Recorded values, source PubChem BioAssay.

# assayed_system: Calmodulin-1 (Homo sapiens) (UniProt P0DP23)
# assay_text: CALM1 binders on microarrays, EGTA buffer, profiling panel, biochemical, small-molecule microarray, Cy5-labelled CALM1 (AID 1111);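 note: labelled calmodulin applied in Tris saline Tween buffer holding calcium plus EGTA and DTT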
# condition_label: Cy5-CALM1 binding fluorescence, higher = more signal
property_name: composite z-score
Number, no unit, nothing else.

IN: What measured composite z-score goes with `COC(=O)CC=C[C@H](C)[C@@H](OCc1ccccc1Br)C(C)C` ?
OUT: -0.354

IN: # get_value(readout='composite z-score', item= O=C1CCCC=C1C(O)CCOCc1ccccc1 (stereo not drawn) )
OUT: -0.314

IN: Suppose we examine the compound `CC(C)[C@H](NC(=O)OC(C)(C)C)[C@@H](O)CC(=O)OC(C)(C)C` ; what composite z-score value has been reported?
OUT: -0.32

IN: Name the recorded composite z-score for `C=CCNC(=O)[C@H]1[C@@H]2C(=O)O[C@@H](c3ccccc3)[C@@H](c3ccccc3)N2[C@@H](c2ccc(O)cc2)[C@]12C(=O)N(C(=O)OCCOC)c1ccc(C#CC3=CCCCC3)cc12` .
OUT: 1.64

IN: Please look up its composite z-score: `O=C1[C@H]2[C@H]3[C@H](O)[C@H](O)CC(=NO[C@@H]4O[C@H](CO)[C@@H](O)[C@H](O)[C@H]4O)[C@@H]3CC[C@H]2C(=O)N1Cc1ccccc1`
OUT: -0.225

IN: Fill blank: measured composite z-score of the compound `CC(C)CON=C1C[C@@H](O)[C@@H](O)[C@@H]2[C@@H]3C(=O)N(Cc4ccccc4)C(=O)[C@@H]3CC[C@@H]12` is ____.
OUT: -0.312

IN: Need composite z-score of `COCCOC(=O)N1C(=O)[C@@]2(c3cc(C#Cc4ccc(OC)cc4)ccc31)[C@H](C(=O)N1CCN(c3ncccn3)CC1)[C@H]1C(=O)O[C@H](c3ccccc3)[C@H](c3ccccc3)N1[C@@H]2c1ccc(OCCO)cc1` , thanks.
OUT: 0.766

IN: Which composite z-score is reported for this compound? `CCOC(=O)C1=CC[C@H]2C(=O)N(CC)C(=O)[C@@H]12`
OUT: -0.322

----------
# assay_text: E. coli DRC41 culture turbidity changes, primary screen, E. coli filamentation inducer project, strain DRC41, OD650, 48 h (AID 1152);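 note: E. coli MC1000 strain DRC41 lacking acrAB efflux pump and sulA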
# condition_label: E. coli DRC41 (acrAB sulA), higher = more signal, called active from +8 up or from −8 down
Parameter threshold = 0.4. Response is YES when z-score meets or exceeds it, else NO.

IN: Determine whether measured z-score meets or exceeds 0.4 for `COc1ccc(-c2nc3c(c4c2C[C@H](C)OC4)CN(CCC(C)C)CC3)cc1`
OUT: YES

IN: Quick check, z-score >= 0.4? `CCCNC(=O)[C@@H]1c2ccccc2C(=O)N(c2ccc(C)cn2)[C@H]1c1ccc(CO)cc1`
OUT: NO

IN: Hi team, for `CO[C@H]1COC(=O)[C@H](C)COC(=O)CC=C[C@@H](C)[C@H](OC)COC(=O)CC=C[C@@H]1C` , is the recorded z-score at or above 0.4?
OUT: YES

IN: Could you please find out whether CCCCCN1CC=CC23O[C@@H]4C=CCOC(=O)[C@@H]4[C@H]2C(=O)N(C(CO)C(C)C)[C@@H]3C1=O (some centres not stated) has z-score that meets 0.4 or exceeds it?
OUT: NO

IN: Determine whether this compound has z-score no lower than 0.4: `CCOC(=O)CCN1C(=O)[C@H]2[C@H]3[C@H](O)[C@H](O)CC(=O)[C@H]3CC[C@H]2C1=O`
OUT: NO

IN: Is z-score for CC(C)N1CC=CC23O[C@@H]4C=CCCOC(=O)C4[C@H]2C(=O)N(CCCCCCO)[C@@H]3C1=O (some centres not stated) at or above 0.4?
OUT: NO

IN: Form field: z-score at least 0.4? Entry: CN1C(=O)C2C=CC(C(O)c3ccc(Br)cc3)N(N(c3ccccc3)c3ccccc3)C2C1=O (configuration not stated)
OUT: NO

IN: Given the entry CC(C)(C)N1CC=CC23O[C@@H]4C=CCCOC(=O)C4[C@H]2C(=O)N(CCCCCO)[C@@H]3C1=O (some centres not stated) , answer whether its z-score meets or surpasses 0.4.
OUT: YES

IN: Say whether CCCCCN1CC=CC23O[C@@H]4C=CCOC(=O)[C@@H]4[C@H]2C(=O)N(CCCCCCO)[C@@H]3C1=O (some centres not stated) shows z-score of 0.4 or more.
OUT: NO

IN: For this compound, is measured z-score 0.4 or higher? `COC(=O)[C@@H]1CCCN1C(=O)[C@@H](C)CO`
OUT: NO

IN: Decide: is the reported value of z-score for `CN(C)CCCNC(=O)[C@@H]1c2ccccc2C(=O)N(Cc2cc(F)cc(C(F)(F)F)c2)[C@H]1c1ccc(CO)cc1` equal to or greater than 0.4?
OUT: NO

IN: # bool: z-score of `COC(=O)CC=C[C@@H](C)[C@@H](C=NO[C@H](C)c1cn([C@@H]2COC[C@H]2O)nn1)OC` >= 0.4
OUT: NO

IN: Given the entry `C=C(CCCC)C(=O)CC[C@@H](OC(C)=O)c1cccc(OCCO)c1` , answer whether its z-score meets or surpasses 0.4.
OUT: NO

IN: // inclusive: z-score at least 0.4? input: O[C@@H](Cc1ccccc1)[C@H]1C2C=CCCC(c3ccccc3)=C2CN1Cc1cccc(Cl)c1 (some centres not stated)
OUT: YES

IN: Hi, just wondering whether `O=C1[C@H]2[C@H]3[C@H](O)[C@H](O)CC(=NOCc4ccccc4)[C@@H]3CC[C@H]2C(=O)N1C1CCCCC1` shows z-score of 0.4 or higher.
OUT: NO

IN: Would you say CN(C)c1ccc(C(O)C2C=CC3C(=O)N(c4ccccc4)C(=O)C3N2Nc2ccccc2F)cc1 (configuration not stated) shows z-score at minimum 0.4?
OUT: NO

IN: Could you tell me if the measured z-score of `O=C1[C@H]2[C@H]3[C@H](O)[C@H](O)CC(=NOCc4ccccc4)[C@@H]3CC[C@H]2C(=O)N1Cc1ccccc1` reaches 0.4 or more?
OUT: YES

IN: Dear colleague, could you confirm whether `CC(C)C[C@@H]1NC(=O)[C@H]2C[C@@H](C(=O)O)[C@@H](c3ccc(O)cc3)N2C1=O` has z-score at or above 0.4?
OUT: YES

IN: Assess whether reported z-score for CCOC(=O)[C@H](CC(C)C)NC(=O)CCC1CC(OC(=O)NCc2cccc3ccccc23)CC2(CCCC(COC(=O)NCCN3CCOCC3)O2)O1 (some centres not stated) sits at 0.4 or higher.
OUT: NO

IN: Hi, just wondering whether `C=CC[C@@H]1C=C[C@H](ON=C[C@@H](OC)[C@H](C)C=CCC(=O)OC)[C@@H](CO)O1` shows z-score of 0.4 or higher.
OUT: NO

IN: Quick check, z-score >= 0.4? `[N-]=[N+]=NCc1ccccc1[C@@H]1OC(c2ccc(OCCCO)cc2)=N[C@]1(Cc1ccccc1)C(=O)N1CCOCC1`
OUT: YES

IN: Has `CN(C)CCCNC(=O)[C@@H]1c2ccccc2C(=O)N(Cc2ccccc2)[C@H]1c1ccc(CO)cc1` a recorded z-score greater than or equal to 0.4?
OUT: NO

IN: Is z-score for CCc1cc2c(nc1CC)CCN(CCC(C)=NOC(C)CN1CCCc3nc(C)c(C)cc31)C2 (configuration not stated) at or above 0.4?
OUT: NO

IN: Quick check: does N#Cc1ccc(NN2C(C(O)c3cc(C(F)(F)F)cc(C(F)(F)F)c3)C=CC3C(=O)N(c4ccccc4)C(=O)C32)cc1 (configuration not stated) have z-score greater than or equal to 0.4?
OUT: NO

IN: Kindly determine if z-score recorded for `C#C[C@@H]1Oc2ccccc2S(=O)(=O)N2CCC[C@H]12` is above or exactly 0.4.
OUT: NO

IN: API: above_or_equal(metric=z-score, cutoff=0.4) for item `CC(=O)OC[C@H]1O[C@H](CCON=C(C)CCN2CCc3nc(-c4ccccc4)c(-c4ccccc4)cc3C2)C=C[C@@H]1OC(C)=O`
OUT: NO

IN: Could you verify whether the entry COC(=O)[C@H](C)NC(=O)CCC1CC(OC(=O)NCc2cccc3ccccc23)CC2(CCCC(COC(=O)NCC3CCCCC3)O2)O1 (some centres not stated) shows z-score of no less than 0.4?
OUT: NO

IN: Given `CCN1C(=O)[C@H]2[C@H]3[C@H](O)[C@H](O)CC(=NOC[C@@H](C)[C@H](OCc4ccccc4)C(C)C)[C@@H]3CC[C@H]2C1=O` , state whether its z-score is at least 0.4.
OUT: YES

IN: Textbook exercise: given the entry CCN1C(=O)[C@H]2[C@H]3[C@H](O)[C@H](O)CC(=NOC(C)CN4CCCCc5nc(C)c(C)cc54)[C@@H]3CC[C@H]2C1=O (some centres not stated) , state whether its z-score is greater than or equal to 0.4.
OUT: YES

IN: Does `CC(CCN1CCc2nc(-c3ccccc3)c(-c3ccccc3)cc2C1)=NO[C@H](C)c1cn([C@@H]2COC[C@H]2O)nn1` have a reported z-score of at least 0.4?
OUT: YES

IN: Is it the case that `CC(CCN1CCc2nc(-c3ccccc3)c(-c3ccccc3)cc2C1)=NO[C@@H](C)c1cn([C@H](CO)Cc2ccccc2)nn1` has z-score reaching or exceeding 0.4?
OUT: NO

IN: Could you tell me if the measured z-score of `CO[C@H]1COC(=O)[C@@H]2CCCN2C(=O)[C@@H](C)COC(=O)CC=C[C@@H]1C` reaches 0.4 or more?
OUT: YES
